Origin of the recorded values: ChEMBL document CHEMBL4831497

Test system: KURAMOCHI
Assay: Antiproliferative activity against human KURAMOCHI cells assessed as inhibition of cell viability for 96 hrs by cell titre glo luminescence assay
Assay type: functional, cell-based

test smiles	IC50
O=C(c1ccc(Cl)cc1)C1CCN(C(=O)c2cccc(O)c2)CC1	75 µM
O=C(c1ccc(Sc2cccc(C(F)(F)F)c2)cc1)C1CCN(C(=O)c2cc(O)ccc2F)CC1	3.3 µM
O=C(c1ccc(Sc2cccc(OC(F)(F)F)c2)cc1)C1CCN(C(=O)c2cc(O)ccc2F)CC1	3.7 µM
O=C(c1ccc(Sc2cccc(Cl)c2)cc1)C1CCN(C(=O)c2cc(O)ccc2F)CC1	7 µM

----------
Test system: SK-OV-3
Experiment: Antiproliferative activity against human SK-OV-3 cells assessed as inhibition of cell viability for 96 hrs by cell titre glo luminescence assay
Assay type: functional, cell-based
Conditions: SK-OV-3, 96 h

test smiles	IC50
O=C(c1ccc(Sc2cccc(Cl)c2)cc1)C1CCN(C(=O)c2cc(O)ccc2F)CC1	8.8 µM
O=C(c1ccc(Sc2cccc(OC(F)(F)F)c2)cc1)C1CCN(C(=O)c2cc(O)ccc2F)CC1	4.4 µM
O=C(c1ccc(Cl)cc1)C1CCN(C(=O)c2cccc(O)c2)CC1	84 µM
O=C(c1ccc(Sc2cccc(C(F)(F)F)c2)cc1)C1CCN(C(=O)c2cc(O)ccc2F)CC1	4.4 µM

----------
Target protein (sequence): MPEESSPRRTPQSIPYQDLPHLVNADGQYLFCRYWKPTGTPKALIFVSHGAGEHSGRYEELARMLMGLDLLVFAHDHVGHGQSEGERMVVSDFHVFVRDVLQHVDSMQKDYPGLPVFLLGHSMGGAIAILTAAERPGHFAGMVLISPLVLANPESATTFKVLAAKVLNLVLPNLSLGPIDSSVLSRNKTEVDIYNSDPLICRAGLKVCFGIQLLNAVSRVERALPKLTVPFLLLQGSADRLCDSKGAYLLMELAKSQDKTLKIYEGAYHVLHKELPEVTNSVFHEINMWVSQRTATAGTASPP
pKi: −log10 of the molar value.
pKi listing for selected compounds.

test smiles	pKi
O=C(c1ccc(Sc2cccc(OC(F)(F)F)c2)cc1)C1CCN(C(=O)c2cc(O)ccc2F)CC1	8.95
O=C(c1ccc(Sc2cccc(Cl)c2)cc1)C1CCN(C(=O)c2cc(O)ccc2F)CC1	8.94

----------
IC50 listing for selected molecules.
Tested on: HCT-116
Test: Antiproliferative activity against human HCT-116 cells assessed as inhibition of cell viability for 96 hrs by cell titre glo luminescence assay
Format: functional, cell-based
Conditions: HCT-116, 96 h

test smiles	IC50 / µM
O=C(c1ccc(Sc2cccc(Cl)c2)cc1)C1CCN(C(=O)c2cc(O)ccc2F)CC1	7.6
O=C(c1ccc(Cl)cc1)C1CCN(C(=O)c2cccc(O)c2)CC1	86
O=C(c1ccc(Sc2cccc(OC(F)(F)F)c2)cc1)C1CCN(C(=O)c2cc(O)ccc2F)CC1	3.4
O=C(c1ccc(Sc2cccc(C(F)(F)F)c2)cc1)C1CCN(C(=O)c2cc(O)ccc2F)CC1	3.3
